# target: human pancreas Glucokinase (GK) (Homo sapiens, UniProt P35557)
# Construct: His6; made in house; host or cells: Escherichia coli
# Sequence (P35557 whole entry): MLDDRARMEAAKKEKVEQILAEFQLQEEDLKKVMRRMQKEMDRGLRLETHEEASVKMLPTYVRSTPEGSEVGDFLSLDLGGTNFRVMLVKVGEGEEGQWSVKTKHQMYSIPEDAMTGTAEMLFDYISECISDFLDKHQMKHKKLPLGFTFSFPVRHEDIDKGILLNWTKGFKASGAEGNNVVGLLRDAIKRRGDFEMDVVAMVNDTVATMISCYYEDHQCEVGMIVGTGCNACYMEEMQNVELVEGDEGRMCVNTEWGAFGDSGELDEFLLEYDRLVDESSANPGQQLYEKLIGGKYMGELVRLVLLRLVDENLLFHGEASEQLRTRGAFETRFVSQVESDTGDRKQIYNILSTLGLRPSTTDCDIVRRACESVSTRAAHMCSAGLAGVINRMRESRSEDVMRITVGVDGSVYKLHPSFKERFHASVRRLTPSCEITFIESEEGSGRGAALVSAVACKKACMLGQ
# run-description: Glucokinase enzyme assay, pancreas GK
# Format: biochemical
# test-settings: increase in GK activity above vehicle control, compound 50 μM, 12 mM glucose
assay-readout: activation at 50 µM (%)

(A) O=C(CCC1c2c(F)ccc(F)c2C(=O)N1Cc1ccc(F)cc1)Nc1ccc(C(F)(F)F)cn1 (stereo not drawn) [Compound 18]
(B) O=C(CCC1c2c(F)cccc2C(=O)N1Cc1ccc(F)cc1)Nc1ccc(Br)cn1 (stereo not drawn) [Compound 32]
(C) O=C(CCC1c2cccc(Cl)c2C(=O)N1Cc1ccc(F)cc1)Nc1ccc(Br)cn1 (stereo not drawn) [Compound 38]
Can you order these entries from above by activation at 50 µM? Start with the largest number and work down. Answer format: the labels, in the requested order.
C, B, A

====

# target: human pancreas Glucokinase (GK) (Homo sapiens, UniProt P35557)
# Construct: His6; made in house; host or cells: Escherichia coli
# run-description: Glucokinase enzyme assay, pancreas GK
# Assay type: biochemical
# test-settings: concentration that produces 100% activation above vehicle control
assay-readout: EC100% (µM)

# compound, measured-value
rows = [
    ("CCOC(=O)/C=C/c1ccc(NC(=O)CCC2c3c(F)cccc3C(=O)N2Cc2ccc(F)cc2)nc1 (stereo not drawn)", 0.813),
]

(P) O=C(CCC1c2c(F)ccc(F)c2C(=O)N1Cc1ccc(F)cc1)Nc1ccc(C(F)(F)F)cn1 (stereo not drawn)
(Q) O=C(CCC1c2c(Cl)cccc2C(=O)N1Cc1ccc(F)cc1)Nc1ccccn1 (stereo not drawn)
Which of the two items, P and Q , has the greater recorded EC100%? Answer format: the label of the selected item.
P
(P: 46 µM, Q: 0.411 µM)
